These entries and their values trace back to the supplement of paper PMC9170038.

- System: MS2 coat protein
- TEST_METHOD_NOTES: apparent KD of MS2 coat protein; designed switch direction (-1 OFF switch, 1 ON switch): -1; higher = weaker reporter binding
- TEST_SETTINGS: input ligand: microRNA oligo, concentration not stated
PROPERTY_LABEL: apparent KD of MS2 coat protein (nM)
All answers are understood in nM, so give the number only.

Worked cases, answers included:
[[record]]
seq_text = "AGUCAGGCGGUAGGAUAUCCAAACCGAGUGACCCUCUCAUAACAUGAGGAUCACCCAUGUCGGUGGGAGAAGGGCCGUACGGCG [Atra] (Eterna round: R96, puzzle: Exclusion NG 2)"
observed_value = 90

[[record]]
seq_text = "UACAUGAGGAUCACCCAUGUUUUGUCGUGUAUGGUAUUUAUCUAGGAUAUCAAUCUAUUUAUUUAUGAGAAGGAGAAUAUUAAU [JMF's solution 13] (Eterna round: R96, puzzle: Exclusion NG 3)"
observed_value = 25.7


Task: Give the value of apparent KD of MS2 coat protein reported for the following: AUGGGUCCUCACGGAGCUACAUGAGGAUCACCCAUGUGGAUUGAGGAUAUCCACUGCCGACGGCUGGAGAAGGCAGUUUACUGU [Ex NG3 #94] (Eterna round: R96, puzzle: Exclusion NG 3)
Output: 36
